Target: DNA topoisomerase 2-alpha (Homo sapiens)
Assay: Inhibition of human topoisomerase 2 alpha-mediated relaxation of supercoiled pBR322 DNA at 20 uM after 30 mins by agarose gel electrophoresis
test-readout: inhibition (%)
Please reply with the bare figure in % and do not write the unit itself.

Example molecules with recorded inhibition:
>  <given-smiles>
Cc1ccc(-c2cc(-c3cccs3)nc(-c3sccc3C)c2)o1

>  <assay-target>
DNA topoisomerase 2-alpha (Homo sapiens)

>  <inhibition / %>
15

$$$$
>  <given-smiles>
Cc1ccc(-c2cc(-c3cccs3)nc(-c3cc(C)sc3C)c2)o1

>  <assay-target>
DNA topoisomerase 2-alpha (Homo sapiens)

>  <inhibition / %>
0

$$$$
>  <given-smiles>
c1coc(-c2cc(-c3ccsc3)nc(-c3cccs3)c2)c1

>  <assay-target>
DNA topoisomerase 2-alpha (Homo sapiens)

>  <inhibition / %>
0

$$$$

Please examine the following record next.
For the molecule "c1coc(-c2cc(-c3ccsc3)nc(-c3ccsc3)c2)c1" , the measured inhibition on DNA topoisomerase 2-alpha (Homo sapiens) was 0

====

Species: Bos taurus
Test: Inhibition of calf thymus topoisomerase 1-mediated relaxation of supercoiled pBR322 DNA at 20 uM after 30 mins by agarose gel electrophoresis
Listed next: entries and their corresponding inhibition.
Use % as the unit, but write only the number.

>  <compound>
Cc1ccsc1-c1cc(-c2ccoc2)cc(-c2sccc2C)n1

>  <quantitative-readout>
15

$$$$
>  <compound>
Cc1ccc(-c2cc(-c3ccsc3)nc(-c3sccc3C)c2)o1

>  <quantitative-readout>
0

$$$$
>  <compound>
c1csc(-c2cc(-c3ccoc3)cc(-c3cccs3)n2)c1

>  <quantitative-readout>
0

$$$$
>  <compound>
Cc1ccsc1-c1cc(-c2ccoc2)cc(-c2ccsc2)n1

>  <quantitative-readout>
0

$$$$
>  <compound>
Cc1ccc(-c2cc(-c3cccs3)nc(-c3cc(C)sc3C)c2)o1

>  <quantitative-readout>
0

$$$$
>  <compound>
Cc1ccc(-c2cc(-c3ccsc3)nc(-c3cccs3)c2)o1

>  <quantitative-readout>
0

$$$$

For CC[C@@]1(O)C(=O)OCc2c1cc1n(c2=O)Cc2cc3ccccc3nc2-1 [CAMPTOTHECIN] the compound record lists inhibition as 41

Value of inhibition reported for the compound "Cc1ccc(-c2cc(-c3cccs3)nc(-c3sccc3C)c2)o1" is 0

Looking up "Clc1ccc(-c2cc(-c3ccsc3)nc(-c3ccsc3)c2)o1" , I see its inhibition listed as 0

Input "Cc1ccsc1-c1cc(-c2ccco2)cc(-c2ccsc2)n1" . Output inhibition: 9

Note to self: inhibition recorded for "Clc1ccc(-c2cc(-c3ccsc3)nc(-c3cccs3)c2)o1" was 12

Entry under test: "Clc1ccc(-c2cc(-c3cccs3)nc(-c3cccs3)c2)o1" . Its inhibition was 12

====

Biological target: DNA topoisomerase 2-alpha (Homo sapiens)
Assay: Inhibition of human topoisomerase 2 alpha-mediated relaxation of supercoiled pBR322 DNA at 100 uM after 30 mins by agarose gel electrophoresis
A collection of compounds and their measured inhibition

Example cases with answers are listed next.
>  <compound>
c1coc(-c2cc(-c3ccsc3)nc(-c3ccsc3)c2)c1

>  <assay-target>
DNA topoisomerase 2-alpha (Homo sapiens)

>  <result>
32%

$$$$
>  <compound>
Cc1ccc(-c2cc(-c3cccs3)nc(-c3cccs3)c2)o1

>  <assay-target>
DNA topoisomerase 2-alpha (Homo sapiens)

>  <result>
8%

$$$$
>  <compound>
COc1cc([C@@H]2c3cc4c(cc3[C@@H](O[C@@H]3O[C@@H]5CO[C@@H](C)O[C@H]5[C@H](O)[C@H]3O)[C@H]3COC(=O)[C@H]23)OCO4)cc(OC)c1O [ETOPOSIDE]

>  <assay-target>
DNA topoisomerase 2-alpha (Homo sapiens)

>  <result>
73%

$$$$

Documented inhibition of "Cc1ccsc1-c1cc(-c2ccoc2)cc(-c2cccs2)n1" : 3%

Reported inhibition for "Cc1ccsc1-c1cc(-c2ccoc2)cc(-c2ccsc2)n1" was 0%

Sure, the documented inhibition for "c1coc(-c2cc(-c3ccsc3)nc(-c3cccs3)c2)c1" is 34%

// recorded inhibition for "Cc1ccsc1-c1cc(-c2ccco2)cc(-c2ccsc2)n1" : 58%
